This collection of values is drawn from paper PMC6902050.

Parameter IC50, tested on UniProt:A0A5K1KBV9, listed per item.
Sequence (A0A5K1KBV9 entry or part of it): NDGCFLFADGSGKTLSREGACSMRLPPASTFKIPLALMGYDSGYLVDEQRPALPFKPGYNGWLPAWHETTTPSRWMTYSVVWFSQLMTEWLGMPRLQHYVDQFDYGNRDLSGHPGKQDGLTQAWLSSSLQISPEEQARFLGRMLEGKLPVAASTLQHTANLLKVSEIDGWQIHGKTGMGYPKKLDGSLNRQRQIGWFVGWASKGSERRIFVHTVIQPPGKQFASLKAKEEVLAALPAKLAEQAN
Give bare numbers, in µM.

structurenotation=C[C@]1(Cn2ccnn2)[C@H](C(=O)O)N2C(=O)C[C@H]2S1(=O)=O recordedresult=0.07
structurenotation=O=C(O)[C@H]1/C(=C/CO)O[C@@H]2CC(=O)N21 recordedresult=0.26

Next:
Look at this compound and give its reported IC50. `CC1(C)[C@H](C(=O)O)N2C(=O)C[C@H]2S1(=O)=O` 0.05
